pIC50 overview
# target_of_assay: full-length human PKCι (Homo sapiens)
# Construct: Recombinant, full-length human PKCι expressed in Sf21 insect cells is also commercially available
# Sequence (P41743 1-596): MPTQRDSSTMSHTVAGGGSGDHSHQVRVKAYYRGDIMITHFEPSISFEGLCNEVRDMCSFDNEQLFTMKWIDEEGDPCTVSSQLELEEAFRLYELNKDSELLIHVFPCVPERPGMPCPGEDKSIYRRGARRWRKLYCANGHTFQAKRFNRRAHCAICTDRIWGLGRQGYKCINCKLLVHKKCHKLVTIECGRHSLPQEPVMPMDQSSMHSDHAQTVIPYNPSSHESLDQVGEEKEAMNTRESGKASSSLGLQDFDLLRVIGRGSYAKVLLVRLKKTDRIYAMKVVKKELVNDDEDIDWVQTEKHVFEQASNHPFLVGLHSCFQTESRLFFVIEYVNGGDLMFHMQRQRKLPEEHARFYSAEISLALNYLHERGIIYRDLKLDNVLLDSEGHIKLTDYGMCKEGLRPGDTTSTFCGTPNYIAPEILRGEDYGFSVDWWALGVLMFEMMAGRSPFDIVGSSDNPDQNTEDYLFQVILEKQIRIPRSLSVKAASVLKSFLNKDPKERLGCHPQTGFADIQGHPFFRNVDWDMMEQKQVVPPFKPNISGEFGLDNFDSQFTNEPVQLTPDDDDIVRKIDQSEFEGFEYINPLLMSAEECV
# assay_remarks: PKCι IC50 IMAP assay, full-length PKCι at 150 μM ATP
# condition_label: read-out: IC50 in IMAP assay against full length PKCi at 150 μM ATP
pIC50: −log10 of the molar value.
measured_attribute: pIC50

> print(dat)
                                   compound                        target.of.assay       reading
1  CN(c1nc(-c2ccnc(Nc3ncc(F)cc3F)c2)nc2cncc(C3CC3)c12)C1CCOCC1 [Example 2172]  full-length human PKCι (Homo sapiens)  5.00 to 6.00
2  FC(F)(F)c1ccc(Cl)c(Nc2cc(-c3nc(N4CCNCC4)c4c(C5CC5)cncc4n3)ccn2)c1 [Example 597]  full-length human PKCι (Homo sapiens)  4.40 to 5.00
3  C[C@@H](Nc1cc(-c2nc(N3CCNCC3)c3c(C4CC4)cncc3n2)ccn1)c1ccc2ccccc2c1 [Example 2160]  full-length human PKCι (Homo sapiens)        > 7.00
4  Fc1cccc(F)c1Nc1cc(-c2nc(NC3CCNC3)c3c(C4CC4)cncc3n2)ccn1 (stereo not shown) [Example 837]  full-length human PKCι (Homo sapiens)        > 7.00
